Origin of values: patent US8008547B2

# reported Kcat; entries follow
Test: Standard protocol for determination of kcat and KM (continuous spectrophotometric assay, Acetyl CoA hydrolysis at 235 nm)
Format: biochemical
Conditions: purified protein; about 23° C.; 20 mM HEPES pH 6.8, 10% ethylene glycol, 0.2 mM acetyl CoA
Express the result in s⁻¹ but write the number alone.

Some solved entries appear below for comparison.
SEQ ID NO: 297: GAT polypeptide (protein, 12G7, GAT polypeptide) MIEVKPINAEDTYEIRHRILRPNQPLEACKYETDLLGGTFHLGGYYQGKLISIASFHKAEHSELEGQKQYQLRGMATLEGYREQKAGSTLIRHAEELLRKKGADLLWCNARTSVSGYYKKLGFSEQGEVYDIPPIGPHILMYKKLT    0.0383
SEQ ID NO: 418: GAT polypeptide (protein, 7_2D7, GAT polypeptide) MIEVKPINAEDTYEIRHRILRPNQPLEACKYETDLLGGTFHLGGYYRGKLISIASFHQAEHPELEGQKQYQLRGMATLEGYREQKAGSTLIRHAEELLRKKGADLLWCNARTSASGYYKKLGFSEQGEVYDIPPVGPHILMYKKLT    0.915

Lab note: SEQ ID NO: 398: GAT polypeptide (protein, 6_22H9, GAT polypeptide) MIEVKPINAEDTYEIRHRILRPNQPLEACMYETDLLGGTFHLGGYYRGKLISIASFHQAEHSELEGQKQYQLRGMATLDEYREQKAGSTLIRHAEELLRKKGADLLWCNARTSASGYYKKLGFSEQGEVYDIPPIGPHILMYKKLT gave Kcat of 0.29

The molecule listed as SEQ ID NO: 270: GAT polypeptide (protein, 10_15F4, GAT polypeptide) MIEVKPINAEDTYEIRHRILRPNQPLEACMYETDLLRGTFHLGGYYRGKLVSIASFHQAEHPELEGQKQYQLRGMATLEEYREQKAGSTLIRHAEELLRKKGADLLWCNARTSASGYYKKLGFSEQGGVYDIPPVGPHILMYKKLT shows Kcat equal to 0.627

Query SEQ ID NO: 484: GAT polypeptide (protein, 1_6F12, GAT polypeptide) MIEVKPINAEETYELRHRILRPNQPIEACMYESDLLRGSFHLGGFYRGKLISIASFHQAEHSDLEGQKQYQLRGMATLEGYRDQKAGSTLIKHAEELLRKRGADMLWCNARTSAAGYYKRLGFSEHGEIYETPPVGPHILMYKKIT yields Kcat of 3.48

Measured Kcat of SEQ ID NO: 431: GAT polypeptide (protein, 9_24F6, GAT polypeptide) MIEVKPINAEDTYEIRHRILRPNQPLEACKYETDLLRGAFHLGGYYRGKLISIASFHQAEHSELEGQKQYQLRGMATLEGYREQKAGSTLIRHAEALLRKKGADLLWCNARTSASGYYKKLGFSEQGEVYDIPPTGPHILMYKKLT : 0.875

response.value for SEQ ID NO: 428: GAT polypeptide (protein, 9_21C8, GAT polypeptide) MIEVKPINAEDTYEIRHRILRPNQPLEACMYETDLLGGTFHLGGYYRGKLISIASFHQAEHPELEGQKQYQLRGMATLEGYREQKAGSTLIRHAEELLRKKGADLLWCNARTSASGYYKKLGFSDQGEVYDIPPVGPHILMYKKLT (field: Kcat) = 0.477
